Test system: SW780;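 further: growth inhibition of the cells, read out with a cell viability assay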
experiment notes: cells
Format: functional, cell-based, Homo sapiens
run parameters: Homo sapiens, SW780
Description: SANGER: Inhibition of human SW780 cell growth in a cell viability assay.
readout kind: IC50

{"columns": ["compound", "IC50"],
 "data": [
  ["O=c1cc(-c2cccc3c2Sc2ccccc2S3)oc(N2CCOCC2)c1 [KU-55933]", "> 10 µM"],
  ["O=C(NOCC1CC1)c1ccc(F)c(F)c1Nc1ccc(I)cc1Cl [CI-1040]", "3.14 µM"]
]}

Query string: Using the record for C=CCc1cccc(/C=N/NC(=O)CN2CCN(Cc3ccccc3)CC2)c1O [PAC-1] , state its measured IC50.
Result string: > 2.56 µM

* * *

System: Caov-3 cell line;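 further: cell growth inhibition read out by a viability assay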
experiment notes: cells
Assay type: functional, cell-based
run parameters: Homo sapiens
Description: SANGER: Inhibition of human Caov-3 cell growth in a cell viability assay.
readout kind: IC50

Query string: Using the record for Cc1cnc(-c2cnc(NCCNc3ccc(C#N)cn3)nc2-c2ccc(Cl)cc2Cl)[nH]1 [LADUVIGLUSIB] , state its measured IC50.
Result string: > 2560 nM

* * *

System: 769-P
experiment notes: cells
Assay type: functional, cell-based, Homo sapiens
run parameters: Homo sapiens, 769-P
Description: SANGER: Inhibition of human 769-P cell growth in a cell viability assay.
pIC50: −log10 of the molar value.
# pIC50 per record follows

{"columns": ["molecule", "pIC50"],
 "data": [
  ["CN(Cc1cnc2nc(N)nc(N)c2n1)c1ccc(C(=O)N[C@@H](CCC(=O)O)C(=O)O)cc1 [METHOTREXATE]", 7.34],
  ["O=c1cc(-c2cccc3c2Sc2ccccc2S3)oc(N2CCOCC2)c1", "< 5.00"]
]}

Query string: Answer with pIC50 of O=C(c1cc(Cc2n[nH]c(=O)c3ccccc23)ccc1F)N1CCN(C(=O)C2CC2)CC1 measured for 769-P.
Result string: < 5.30

Query string: Answer with pIC50 of O=C1N=C(NCc2cccs2)S/C1=C\c1ccc2ncccc2c1 measured for 769-P.
Result string: < 5.30

Query string: Answer with pIC50 of O=C(NOCC1CC1)c1ccc(F)c(F)c1Nc1ccc(I)cc1Cl measured for 769-P.
Result string: < 5.00

* * *

Tested on: NH-12
experiment notes: cells
Type: functional, cell-based, Homo sapiens
run parameters: Homo sapiens, NH-12
Description: SANGER: Inhibition of human NH-12 cell growth in a cell viability assay.
readout kind: IC50

The following compounds have reported results that may help.
{"columns": ["mol smiles", "test system", "result"],
 "data": [
  ["O=C(c1cc(Cc2n[nH]c(=O)c3ccccc23)ccc1F)N1CCN(C(=O)C2CC2)CC1", "NH-12", "> 5 µM"],
  ["CS(=O)(=O)CCNCc1ccc(-c2ccc3ncnc(Nc4ccc(OCc5cccc(F)c5)c(Cl)c4)c3c2)o1", "NH-12", "> 2 µM"],
  ["Cc1cnc(-c2cnc(NCCNc3ccc(C#N)cn3)nc2-c2ccc(Cl)cc2Cl)[nH]1", "NH-12", "> 2.56 µM"]
]}

Query string: Answer with IC50 of CCOc1nc(NC(=O)Cc2cc(OC)ccc2OC)cc(N)c1C#N measured for NH-12.
Result string: > 10 µM

* * *

# pIC50 per record follows
Tested on: WSU-NHL
experiment notes: cells
Format: functional, cell-based
run parameters: Homo sapiens
Description: SANGER: Inhibition of human WSU-NHL cell growth in a cell viability assay.
pIC50: −log10 of the molar value.

The following compounds have reported results that may help.
{"columns": ["compound", "pIC50"],
 "data": [
  ["O=C(/C=C/c1ccccc1)NC(NC(=S)Nc1cccc2cccnc12)C(Cl)(Cl)Cl (configuration not stated) [SALUBRINAL]", "< 4.80"],
  ["COC(=O)CNC(=O)C(=O)OC", "< 2.40"],
  ["CCc1nc(N)nc(N)c1-c1ccc(Cl)cc1 [PYRIMETHAMINE]", "< 4.70"]
]}

Query string: Using the record for C=C1C(=O)O[C@@H]2C3O[C@]3(C)CC/C=C(\C)CC[C@@H]12 (some centres not stated) , state its measured pIC50.
Result string: < 5.30

Query string: Using the record for CC1=C2C[C@H]3[C@@H](CC=C4C[C@@H](O)CC[C@@]43C)[C@@H]2CC[C@]12O[C@@H]1C[C@H](C)CN[C@H]1[C@H]2C [CYCLOPAMINE] , state its measured pIC50.
Result string: < 4.80

Query string: Using the record for Cc1cnc(-c2cnc(NCCNc3ccc(C#N)cn3)nc2-c2ccc(Cl)cc2Cl)[nH]1 [LADUVIGLUSIB] , state its measured pIC50.
Result string: < 5.59

Query string: Using the record for Cc1cc([C@@H](C)Nc2ccccc2C(=O)O)c2nc(N3CCOCC3)cc(=O)n2c1 [AZD-6482] , state its measured pIC50.
Result string: < 5.29
